B1: library; a variant is named by its letters at N, in order (parent)
chain: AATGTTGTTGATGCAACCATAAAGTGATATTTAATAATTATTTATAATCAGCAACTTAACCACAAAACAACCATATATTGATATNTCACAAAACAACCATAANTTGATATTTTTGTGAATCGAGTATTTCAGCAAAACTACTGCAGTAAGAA

# Variants of: B1
# assay_name: relative integration efficiency (T-RL orientation) vs wild-type transposon end (log2 (normalized fold change)); transposon end mutated: left end; higher = more efficient transposition
# experimental_setup: with VchCAST RNA-guided transposition machinery (E. coli BL21(DE3) host, lacZ target)
assay_metric: relative integration efficiency (log2)
Note: the reply should be a number with no unit written.

CG A1T A2T G4T T5G	-0.0703

Exam item: Please give the measured relative integration efficiency (log2) for this variant: CG T39A
Marked response: 0.0624

Exam item: Could you tell me which relative integration efficiency (log2) is on file for CG T56C ?
Marked response: -0.2

Exam item: Field request: relative integration efficiency (log2) | item: CG G4T
Marked response: -0.172

Exam item: // returns reported relative integration efficiency (log2) for input CG C61A
Marked response: 0.0593

Exam item: Fill blank: measured relative integration efficiency (log2) of the variant CG A64T is ____.
Marked response: -0.229

Exam item: Would you mind telling me what relative integration efficiency (log2) value was observed for CG A37C T38G T39G A40C ?
Marked response: -0.0337

Exam item: # query: relative integration efficiency (log2) of entry CG C94T
Marked response: -0.669

Exam item: So what does the record say about relative integration efficiency (log2) for CG A50G ?
Marked response: -0.168

Exam item: // returns reported relative integration efficiency (log2) for input CG G4A
Marked response: -0.0961

Exam item: // query relative integration efficiency (log2) value for entry CG A92T A93T C94G A95T
Marked response: -1.61

Exam item: Quick one: relative integration efficiency (log2) of CG T42G T43G ?
Marked response: -0.123

Exam item: // query relative integration efficiency (log2) value for entry CG A73T T74A
Marked response: -0.97

# credit: the supplement of paper PMC10201428
